Attribution: patent US7888527B2

system: human S1P3 receptor (Homo sapiens)
Sequence (Q99500 whole entry): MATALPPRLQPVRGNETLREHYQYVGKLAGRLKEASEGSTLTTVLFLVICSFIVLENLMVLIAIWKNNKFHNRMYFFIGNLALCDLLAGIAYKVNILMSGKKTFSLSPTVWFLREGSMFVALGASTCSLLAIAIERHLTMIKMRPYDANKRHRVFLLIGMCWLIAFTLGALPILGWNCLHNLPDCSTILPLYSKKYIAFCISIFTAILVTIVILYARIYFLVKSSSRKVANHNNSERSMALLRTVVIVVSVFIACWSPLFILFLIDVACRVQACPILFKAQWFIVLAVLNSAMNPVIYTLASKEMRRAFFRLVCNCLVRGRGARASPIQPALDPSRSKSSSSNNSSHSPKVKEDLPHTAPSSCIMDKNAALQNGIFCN
protocol: [32P]S1P binding assay, HEK293T membranes
Parameters: expressed in transfected cells; host or cells: HEK293T, transient transfection; membranes
test-context: read-out: pKi S1P3 (converted)
assay-readout: Ki (µM)

Reference set, count: 2
CCCCCCCCc1cccc(NC(=O)[C@H](N)COP(=O)(O)O)c1 [VPC23019] : 1.17
CCCCCCCCc1ccccc1NC(=O)[C@H](N)COP(=O)(O)O [VPC23089] : 1.58

I = CCCCCCCc1cccc(NC(=O)[C@H](N)COP(=O)(O)O)c1 [VPC25239]
II = CCCCCCCCCCCCC/C=C/[C@@H](O)[C@@H](N)COP(=O)(O)O [Compound S1P, Sphingosine 1-phosphate, reference compound]
Q) Hey, between I and II which has a smaller measured Ki? Answer with the label corresponding to your selection.
A) II

* * *

system: UniProt Q99500
protocol: [γ-35S]GTP binding assay, HEK293T membranes (agonism and Schild antagonism)
Format: biochemical
Set-up: expressed in transfected cells; host or cells: HEK293T, transient transfection; membranes
test-context: read-out: pKb S1P3 (converted)
assay-readout: Kb (µM)

Consider the worked cases shown below.
CCCCCCCc1cccc(NC(=O)[C@H](N)COP(=O)(O)O)c1 : 1.41
CCCCCCc1cccc(NC(=O)[C@H](N)COP(=O)(O)O)c1 : 10.5

a = CCCCCCCCc1cccc(NC(=O)[C@H](N)COP(=O)(O)O)c1
b = CCCCCCCCc1ccccc1NC(=O)[C@H](N)COP(=O)(O)O
Q) Hey, between a and b which has a smaller measured Kb? # respond with the chosen item's label
A) b

* * *

system: S1P2 receptor (Homo sapiens, UniProt O95136)
Construct: expressed in transfected cells; host or cells: HEK293T, transient transfection; membranes
Sequence (O95136 whole entry): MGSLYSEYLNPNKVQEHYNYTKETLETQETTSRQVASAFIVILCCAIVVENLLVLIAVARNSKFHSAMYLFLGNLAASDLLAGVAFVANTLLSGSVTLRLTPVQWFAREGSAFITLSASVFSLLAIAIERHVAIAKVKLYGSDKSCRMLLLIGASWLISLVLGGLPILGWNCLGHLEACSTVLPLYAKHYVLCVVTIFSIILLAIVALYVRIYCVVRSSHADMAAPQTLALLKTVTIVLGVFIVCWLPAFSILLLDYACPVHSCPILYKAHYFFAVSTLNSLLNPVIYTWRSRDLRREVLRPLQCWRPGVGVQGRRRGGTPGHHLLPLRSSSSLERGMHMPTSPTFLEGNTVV
protocol: [γ-35S]GTP binding assay, HEK293T membranes
Format: biochemical
test-context: -log molar concentration giving 50% of maximal [γ-35S]GTP binding; ± S.E.M.; read-out: pEC50 S1P2 (converted)
Excerpt: The appropriate receptor plasmid DNA (encoding human S1P1, human S1P2, human S1P3, human S1P4, human S1P5, human LPA1, human LPA2 or human LPA3 receptors) is mixed with equal amounts of expression plasmids encoding human Gi2α (for S1P3, a mutated (C352F) rat Gi2α is used), cow β1, and cow γ2 proteins, and these DNAs are used to transfect monolayers of HEK293T cells (where ‘T’ indicates expression of the SV-40 virus large T antigen) using the calcium phosphate precipitate method (7). […]
Measured EC50, listed per entry for reference.

Previously resolved entries follow.
CCCCCCCCCCc1cccc(NC(=O)[C@H](N)COP(=O)(O)O)c1 : > 10 µM
CCCCCCCCc1cccc(NC(=O)[C@H](N)COP(=O)(O)O)c1 : > 10 µM
CCCCCCc1cccc(NC(=O)[C@H](N)COP(=O)(O)O)c1 : > 10 µM
CCCCCCCCc1ccccc1NC(=O)[C@H](N)COP(=O)(O)O : > 10 µM
CCCCCCCCCc1cccc(NC(=O)[C@H](N)COP(=O)(O)O)c1 : > 10 µM

Q) Which EC50 is listed for CCCCCCCc1cccc(NC(=O)[C@H](N)COP(=O)(O)O)c1 ?
A) > 10 µM

* * *

system: human S1P1 receptor (Homo sapiens, UniProt P21453)
Sequence (P21453 whole entry): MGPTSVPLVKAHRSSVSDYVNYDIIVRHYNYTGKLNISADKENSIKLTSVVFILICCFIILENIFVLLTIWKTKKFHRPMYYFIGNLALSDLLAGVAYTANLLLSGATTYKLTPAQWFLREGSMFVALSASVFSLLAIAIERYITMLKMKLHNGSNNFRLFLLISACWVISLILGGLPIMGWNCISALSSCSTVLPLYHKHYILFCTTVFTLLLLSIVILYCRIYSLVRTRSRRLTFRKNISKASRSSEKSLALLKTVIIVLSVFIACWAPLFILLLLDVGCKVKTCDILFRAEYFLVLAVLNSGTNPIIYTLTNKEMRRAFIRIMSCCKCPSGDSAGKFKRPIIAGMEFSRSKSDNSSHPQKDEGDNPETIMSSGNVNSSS
protocol: [γ-35S]GTP binding assay, HEK293T membranes (agonism and Schild antagonism)
Assay type: biochemical
Parameters: expressed in transfected cells; host or cells: HEK293T, transient transfection; membranes
test-context: read-out: pKb S1P1 (converted)
assay-readout: Kb (nM)

Worked examples follow.
CCCCCCc1cccc(NC(=O)[C@H](N)COP(=O)(O)O)c1 : 135
CCCCCCCCc1ccccc1NC(=O)[C@H](N)COP(=O)(O)O : 490

P = CCCCCCCc1cccc(NC(=O)[C@H](N)COP(=O)(O)O)c1
Q = CCCCCCCCc1cccc(NC(=O)[C@H](N)COP(=O)(O)O)c1
Q) Name the one with the greater Kb value, either P or Q as given. Reply with the label of the item you choose.
A) P
